Data origin, for the record: the array DNA melting data of Ke et al. (doi:10.1101/2024.01.08.574731)

For each record, write down the corresponding folding enthalpy.
- assay text: folding enthalpy; higher = less favourable; fluorescence melt of hairpins on a sequencing array, two-state fit
- condition set: sodium 0.088 M
Answers are plain numbers, in kcal/mol.

Answer for every listed entry: what is its folding enthalpy? The entries follow.
1. GCGTAAAGACGC ((((....))))
2. GCGGTTACCCGC ((((....))))
3. GACGGCGAAAGCCCAGTC ((((((....)))..)))
4. GTCGTCGAAAGACTGGAC ((((((....)))..)))
5. GTAGTAGGAAACTGCTAC ((((.((....)).))))
6. GGGTTTGGAAACAGACCC ((((.((....)).))))
7. GCGTCGCGAAAGCCATGC ((.(.((....)).).))

1: -17.8; 2: -28.4; 3: -13.1; 4: -20.7; 5: -30.5; 6: -39.9; 7: -16.2

---

- assay text: melting temperature; fluorescence melt of hairpins on a sequencing array, two-state fit, raised by 9.35 °C to match UV melts
- condition set: sodium 0.088 M
For each record, write down the corresponding Tm.
Numbers only, in °C.

{"columns": ["sequence record", "readout name", "reported value"],
 "data": [
  ["GCACGGTCGAAAGACTGC (((..(((....))))))", "Tm", 39.4]
]}

Answer for every listed entry: what is its Tm? The entries follow.
1. GCTCTGGGAAACCAAAGC (((.(((....))).)))
2. GTTATGTCGAAAGACAAC (((..(((....))))))
3. CGAATGAAAATTCG (((((....)))))
4. GGACCCCCGAAAGGGTCC (((..(((....))))))
5. GGAGATCCGAAAGGATCC (((..(((....))))))
6. GCCTTGCGAAAGCGACGC ((.(.((....)).).))

1: 35.5; 2: 28.5; 3: 48.1; 4: 62.1; 5: 42; 6: 48.2

Answer for every listed entry: what is its Tm? The entries follow.
1. GTCTGCGAAAGCAATGAC ((((((....)))..)))
2. GATCATCTCTATGATC ((((((....))))))
3. GATCCGAGTTCGGATC ((((((....))))))
4. GATCCGACGGCGGATC ((((((....))))))
5. GGATCAGGAAACTAATCC ((((.((....)).))))
6. GCTCGGCGAAAGCGTAGC (((..((....))..)))

1: 39.3; 2: 47.1; 3: 58.5; 4: 57.8; 5: 26.2; 6: 39.3

Answer for every listed entry: what is its Tm? The entries follow.
1. GACTGAGCGAAAGCTGTC (((..(((....))))))
2. GCCGACGAAAGTCCCGGC ((((((....)))..)))
3. GTTCTACGAAAGTATAAC (((.(((....))).)))
4. GCGCTGCGAAAGCACCGC (((.(((....))).)))

[44.1, 49.6, 34.5, 53.9]

Answer for every listed entry: what is its Tm? The entries follow.
1. GATTCACGAAAGTGATC (((.(((....))))))
2. GAGGATGGAAACATCCCC (.(((((....))))).)
3. GATCTCTCTAGAGATC ((((((....))))))

1. 42.3
2. 42.8
3. 56.3

Answer for every listed entry: what is its Tm? The entries follow.
1. GAGCCGGGAAACCGACCC (.(.(((....))).).)
2. GGGTACGAAAGTAGGCCC ((((((....)))..)))
3. CGGGCGGAAACGCCTCCG ((((((....)))..)))
4. GCCGCTGCGAAAGCAGGC (((..(((....))))))
5. GCAAGGGGAAACTCTTGC (((((.(....).)))))

1: 30.1; 2: 38.6; 3: 36.1; 4: 65.1; 5: 50.1
